Recorded measurements of AC50, one per entry
- Test system: HTT mRNA
- assayRemarks: Splicing assay (RT-qPCR) monitoring HTT canonical junction (CJ) and alternative junction (AJ) mRNA isoforms
- Assay type: cell-based
- recordedConditions: decrease in CJ mRNA (50% response); A673 or K562 cells, 24 h treatment, top dose 10 uM; read-out: HTT CJ AC50

Would you please look over these solved cases?
Cn1cc2cc(-n3cnc4cc(C5=CCNCC5)ccc4c3=O)ccc2n1 [Compound 158]
> 10 µM
Cc1cn2nc(-c3ccc4c(c3)CCN(C3CCNC3)C4=O)cc(C)c2n1 (stereo not drawn) [Compound 269]
> 10 µM
Cc1cn2cc(-c3ccc4c(=O)n(C5CCNCC5)ncc4c3)cc(C)c2n1 [Compound 257]
0.1 to 1 µM
Cc1cn2nc(-c3ccc4c(c3)CCN(C3CCNCC3)C4=O)cc(C)c2n1 [Compound 185]
0.1 to 1 µM
Cc1cn2nc(-c3ccc4c(=O)n(C5CCN(C)CC5)cnc4c3F)cc(C)c2n1 [Compound 290]
0.1 to 1 µM

Measured AC50 for this entry Cc1cn2cc(-c3ccc4c(=O)n(C5CCNCC5)ncc4c3)nc2c(C)n1 [Compound 258] on HTT mRNA: 1 to 10 µM

Observed AC50, HTT mRNA, Cn1cc2ccc(-c3ccc4c(=O)n(C5CCNCC5)ncc4c3)cc2n1 [Compound 263] : > 10 µM

So the reported AC50 for Cc1cn2cc(-c3ccc4c(=O)n(C5CCN(C)CC5)cnc4c3)cc(F)c2n1 [Compound 207] , on HTT mRNA, turned out to be 1 to 10 µM

Measured AC50 for this entry Cc1nc2c(F)cc(-c3ccc4c(=O)n(C5CCN(C)CC5)cnc4c3)cc2o1 [Compound 300] on HTT mRNA: 0.1 to 1 µM

Values compiled from patent US20230159496A1.
